Task for the reader: assign each of the following molecules its reported T/C.
test system: L1210 leukemia ip in BDF1 mice, survival T/C; test: NCI In Vivo Anticancer Drug Screen. Data for tumor model L1210 Leukemia (intraperitoneal) in B6D2F1 (BDF1) mice; settings: endpoint: mean survival time; dose: 100.0 mg/kg/injection; schedule: Q01DX001 (ip); vehicle: saline; higher = longer survival
Inconclusive results and toxic doses are left out.

>  <molecule>
Nc1ncnc2c1nc1n2C2OC(CO)C(O)C2O1 (stereo not drawn)

>  <T/C>
111 % of control

$$$$
>  <molecule>
CN(C(=O)CCC(=O)O)c1cc([N+](=O)[O-])ccc1OCc1ccccc1

>  <T/C>
100 % of control

$$$$
>  <molecule>
CC(=O)Nc1cccc(-c2nnc(C3CCCC(NC(C)=O)C3)nn2)c1 (stereo not drawn)

>  <T/C>
96 % of control

$$$$
>  <molecule>
CC1([N+](=O)[O-])COP(=O)(Nc2ccc(Br)cc2)OC1 (stereo not drawn)

>  <T/C>
98 % of control

$$$$
>  <molecule>
CCCCN(C)c1ncnc2[nH]ncc12

>  <T/C>
106 % of control

$$$$

Report T/C for every entry below.
1. CCCCC(=O)N/N=C/c1ccc(Cl)c([N+](=O)[O-])c1
2. S=P(NCCS)(N1CC1)N1CC1
3. O=[N+]([O-])c1cc(Cl)c(Cl)c([N+](=O)[O-])c1O
4. CC(C)(C)N1CC1

### Response
91 % of control
106 % of control
95 % of control
106 % of control

###

test system: L1210 leukemia ip in BDF1 mice, survival T/C; assay: NCI In Vivo Anticancer Drug Screen. Data for tumor model L1210 Leukemia (intraperitoneal) in B6D2F1 (BDF1) mice; settings: endpoint: mean survival time; dose: 400.0 mg/kg/injection; schedule: Q04DX003 (ip); vehicle: Klucel (hydroxypropylcellulose) (HPC); higher = longer survival
Inconclusive results and toxic doses are left out.
measurement-kind: T/C

# annotated cases, reported T/C shown
>  <compound>
Cc1cccc(NC(=O)Nc2ccc(F)cc2)n1

>  <T/C>
107 % of control

$$$$
>  <compound>
CC(=O)Nc1cc(C)no1

>  <T/C>
92 % of control

$$$$
>  <compound>
CC(=O)Oc1cc(O)c2c(c1)OC(C)(C)CC2=O

>  <T/C>
97 % of control

$$$$
>  <compound>
COc1ccc(C(=O)c2ccccc2)cc1OC

>  <T/C>
89 % of control

$$$$
>  <compound>
O=C(COc1ccccc1)Oc1c(Cl)c(Cl)c(Cl)c(Cl)c1Cl

>  <T/C>
95 % of control

$$$$
>  <compound>
CCOC(=O)C(C)Cl (stereo not drawn)

>  <T/C>
103 % of control

$$$$
>  <compound>
CCCCCCCCCCCCCCCCS(=O)(=O)c1ccc(S(=O)(=O)F)cc1NC(C)=O

>  <T/C>
91 % of control

$$$$
>  <compound>
CC1=NN(c2ccc(S(=O)(=O)O)cc2)C(=O)C1

>  <T/C>
91 % of control

$$$$

Report T/C for every entry below.
1. O=[N+]([O-])c1ccccc1N1CCCCC1
2. CCCCCCCC(=O)CCC

### Response
109 % of control
89 % of control

Report T/C for every entry below.
1. CN(C)c1ccc2cc(S(=O)(=O)O)cc(O)c2c1
2. O=C(COc1cc(Cl)cc(Cl)c1)NCc1ccc(Cl)cc1
3. COc1cc2c(cc1OC)C1=CC(=O)N3CCCC34OS(=O)OC14CC2 (stereo not drawn)

### Response
93 % of control
88 % of control
96 % of control
